Test system: MYB mRNA
Assay: Gene panel canonical junction qPCR assay, decrease in CJ mRNA, Table 3
Format: cell-based
Conditions: decrease in canonical junction (CJ) mRNA, gene panel qPCR, Table 3
Structures can show the parent of a compound that is named as a salt.
The entries below are paired with their reported IC50.

Solved cases below.
# compound, reading
records = [
    ("CCNC1CCN(c2ccc(C(=O)Nc3cc(Oc4cccc(Cl)c4)c4nc(C)cn4c3)c3nn(C)cc23)CC1 [Compound 314]", "0.1 to 1 µM"),
    ("COc1cc2nn(C)cc2cc1NC(=O)c1ccc(N2CC(C3CNC3)C2)c2cn(C)nc12 [Compound 509]", "> 10 µM"),
    ("CCNC1CCN(c2cc(F)c(C(=O)Nc3cn4cc(C)nc(C)c4c3F)c3nn(C)cc23)CC1 [Compound 468]", "< 0.1 µM"),
    ("CNC1CCCC(Oc2ccc(C(=O)Nc3cn4cc(C)nc(C)c4n3)c3nn(C)cc23)C1 (stereo not drawn) [Compound 593]", "> 10 µM"),
    ("CCNC1CCN(c2cc(F)c(C(=O)Nc3cn4cc(C5CC5)nc(C)c4n3)c3nn(C)cc23)CC1 [Compound 346, bis(2,2,2-trifluoroacetate)]", "> 10 µM"),
    ("Cc1cn2cc(NC(=O)c3ccc(N4CCC(NC5CC5)CC4)c4cn(C)nc34)c(OC(C)C)c2c(C)n1 [Compound 569]", "> 10 µM"),
    ("Cc1cn2cc(NC(=O)c3ccc(N4C[C@H](C)N[C@@H](C)C4)c4[nH]cnc34)cc(F)c2n1 [Compound 221]", "0.1 to 1 µM"),
    ("Cc1cn2cc(NC(=O)c3ccc(N4CCC(NC5CC5)CC4)c4cn(C)nc34)c(F)c2c(C)n1 [Compound 478]", "> 10 µM"),
]

Query string: Param item = CCNC1CCN(c2ccc(C(=O)Nc3cc(F)c4nc(C)c(C)n4c3)c3nn(C)cc23)CC1 [Compound 188] ; retrieve measured IC50.
Result string: > 10 µM

Query string: Param item = CC1OB(O)c2ccc(NC(=O)c3c(F)cc(N4CCC(NC5CC5)CC4)c4cn(C)nc34)cc21 (stereo not drawn) [Compound 558, hydrochloride] ; retrieve measured IC50.
Result string: 1 to 10 µM

Query string: Param item = CNCC1CCN(c2ccc(C(=O)Nc3cc4cn(C)nc4cc3OC)c3nn(C)cc23)C1 (stereo not drawn) [Compound 538] ; retrieve measured IC50.
Result string: 0.1 to 1 µM

Query string: Param item = CCNC1CCN(c2ccc(C(=O)Nc3cn4cc(CF)nc(C)c4n3)c3nn(C)cc23)CC1 [Compound 350] ; retrieve measured IC50.
Result string: 0.1 to 1 µM

Query string: Param item = CCNC1CCN(c2ccc(C(=O)Nc3cc(OC)c4nc(C)sc4c3)c3nn(C)cc23)CC1 [Compound 385, 2,2,2-trifluoroacetate] ; retrieve measured IC50.
Result string: > 10 µM

###

Tested on: HTT mRNA
Test: Splicing RT-qPCR assay (THP), Table 2A
Type: cell-based
Details: Table 2A (THP), CJ mRNA decrease, read-out: HTT CJ (decrease in canonical junction mRNA, IC50)
The entries below are paired with their reported IC50.

# compound, measurement target, IC50
measured = [
    ("CCNC1CCN(c2ccc(C(=O)Nc3cc4cn(C)nc4cc3OC)c3nn(C)cc23)CC1", "HTT mRNA", "1 to 10 µM"),
    ("COc1cc2nn(C)cc2cc1NC(=O)c1ccc(N2CCC(NC3CC3)CC2)c2c(F)n(C)nc12", "HTT mRNA", "0.1 to 1 µM"),
    ("CNC1CCC(Oc2ccc(C(=O)Nc3cc4cn(C)nc4cc3OC)c3nn(C)cc23)CC1 (stereo not drawn)", "HTT mRNA", "1 to 10 µM"),
    ("CCNC1CCN(c2cc(F)c(C(=O)Nc3cn4ccnc(C)c4n3)c3nn(C)cc23)CC1", "HTT mRNA", "> 10 µM"),
    ("COc1cc2nn(C)cc2cc1NC(=O)c1ccc(N(C)C2CCNCC2)c2cn(C)nc12", "HTT mRNA", "> 10 µM"),
    ("CCNC1(C)CCN(c2ccc(C(=O)Nc3cn4cc(C)nc(C)c4c3F)c3nn(C)cc23)CC1", "HTT mRNA", "> 10 µM"),
    ("COc1c(NC(=O)c2c(F)cc(N3CCC(NC4CC4)CC3)c3cn(C)nc23)cn2cc(C)nc2c1C", "HTT mRNA", "> 10 µM"),
    ("CCNC1CCN(c2cc(F)c(C(=O)Nc3cc(F)c4cn(C)nc4c3)c3nn(C)cc23)CC1", "HTT mRNA", "> 10 µM"),
]

Query string: Param item = CN[C@H]1CCN(c2ccc(C(=O)Nc3cc(F)c4nc(C)cn4c3)c3nn(C)cc23)[C@H]1C (single isomer, unassigned) ; retrieve measured IC50.
Result string: > 10 µM
